study-system: APJ (orphan G protein-coupled receptor protein)
Sequence (P35414 whole entry): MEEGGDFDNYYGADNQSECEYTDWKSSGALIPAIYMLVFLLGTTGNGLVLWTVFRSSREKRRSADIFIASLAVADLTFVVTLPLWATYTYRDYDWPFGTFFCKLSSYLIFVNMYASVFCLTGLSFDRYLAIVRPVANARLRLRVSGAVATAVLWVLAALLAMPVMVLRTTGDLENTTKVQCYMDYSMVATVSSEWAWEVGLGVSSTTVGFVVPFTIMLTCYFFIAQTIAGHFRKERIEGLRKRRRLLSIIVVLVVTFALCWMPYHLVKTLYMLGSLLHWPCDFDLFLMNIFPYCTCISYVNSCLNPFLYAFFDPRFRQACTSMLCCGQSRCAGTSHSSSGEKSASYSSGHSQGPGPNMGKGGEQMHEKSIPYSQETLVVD
assay-text: radioligand competition, 125I-labelled compound of Ref. Ex. 1 (100 pM), CHO-A10 membrane fraction
pIC50: −log10 of the molar value. Non-standard residues stand in square brackets, D forms with d. No end group written: not given here. *: point of attachment. Phe(4-Cl) = N[C@@H](Cc1ccc(Cl)cc1)C(=O)O; Cha = N[C@@H](CC1CCCCC1)C(=O)O; Nle = CCCC[C@H](N)C(=O)O; Dap = NC[C@H](N)C(=O)O; Hexanoyl = CCCCCC(=O)*

binder	pIC50
RPRLS[Dap](Hexanoyl)RGP[Cha]P[Phe(4-Cl)] [Arg-Pro-Arg-Leu-Ser-Dap(C6)-Arg-Gly-Pro-Cha-Pro-Phe(Cl)]	8.96
RRQRPRLSARGPX (C-terminal Cha; peptide derivative; Xaa means Cha.) [Arg-Arg-Gln-Arg-Pro-Arg-Leu-Ser-Ala-Arg-Gly-Pro-Cha]	8.85
RPRASHKGP[Cha]PX (not fully specified (residue 12); printed as Arg-Pro-Arg-Ala-Ser-His-Lys-Gly-Pro-Cha-Pro-Phe(Cl)) [Arg-Pro-Arg-Ala-Ser-His-Lys-Gly-Pro-Cha-Pro-Phe(Cl)]	9.28
RRXRPRLSHKGPMPF (N-terminal branched Arg-Arg-Lys(Arg-Arg); peptide derivative; Xaa means Lys(Arg-Arg)) [Arg-Arg-Lys(Arg-Arg)-Arg-Pro-Arg-Leu-Ser-His-Lys-Gly-Pro-Met-Pro-Phe]	8.54
RRQRPRLSHKGP[Cha]PX (not fully specified (residue 15); printed as Arg-Arg-Gln-Arg-Pro-Arg-Leu-Ser-His-Lys-Gly-Pro-Cha-Pro-Phe(Cl)) [Arg-Arg-Gln-Arg-Pro-Arg-Leu-Ser-His-Lys-Gly-Pro-Cha-Pro-Phe(Cl)]	9.33
RPRLFHKGP[Cha]PX (not fully specified (residue 12); printed as Arg-Pro-Arg-Leu-Phe-His-Lys-Gly-Pro-Cha-Pro-Phe(Cl)) [Arg-Pro-Arg-Leu-Phe-His-Lys-Gly-Pro-Cha-Pro-Phe(Cl)]	8.57
RPALSHKGP[Cha]PX (not fully specified (residue 12); printed as Arg-Pro-Ala-Leu-Ser-His-Lys-Gly-Pro-Cha-Pro-Phe(Cl)) [Arg-Pro-Ala-Leu-Ser-His-Lys-Gly-Pro-Cha-Pro-Phe(Cl)]	9.39
RPRLSARGP[Cha]PF [Arg-Pro-Arg-Leu-Ser-Ala-Arg-Gly-Pro-Cha-Pro-Phe]	8.66
RRQRPRLSHKGP[Nle]PY [Arg-Arg-Gln-Arg-Pro-Arg-Leu-Ser-His-Lys-Gly-Pro-Nle-Pro-Tyr]	8.57
RPRLSARGP[Cha]X (not fully specified (residue 11); printed as Arg-Pro-Arg-Leu-Ser-Ala-Arg-Gly-Pro-Cha-Phe(Cl)) [Arg-Pro-Arg-Leu-Ser-Ala-Arg-Gly-Pro-Cha-Phe(Cl)]	9.00
